// kon lookup, one value per entry
# test-target: T1, CD137-hisFc fusion protein (Sino Biological Cat 10041-H03H) (human, UniProt Q07011 24-186)
# T1 construct: Bought; also called recombinant human CD137 (fused with human Fc and His tag); not shown: His tag and human Fc
# test-summary: BLI Octet, Fab
Give the value, in units of M⁻¹ s⁻¹, as a plain number.

// kon lookup, key: Fab 4217 (Fab, V domains shown, Fab from E. coli; also called VH10/VL10) VH: EVQLVESGGGLVQPGGSLRLSCAASGYSISSGYYWDWIRQAPGKGLEWVSSISGDGDTTYYADSVKGRFTISRDNSKNTLYLQLNSLRAEDTAVYYCAREYYGYGYALDYWGQGTLVTVSS VL: DIQLTQSPSSLSASVGDRVTITCRASQGISSYLAWYQQKPGKAPKLLIYDASSLESGVPSRFSGSGSGTDFTLTISSLQPEDFATYYCQQYYSTPLTFGQGTKVEIKR 564000

Next up:
kon for Fab 5413 (Fab, V domains shown, Fab from E. coli; also called VH38/VL38) VH: EVQLVESGGGLVQPGGSLRLSCAASGFSLSTGGVAVGWIRQAPGKGLEWLALIDWDGDKSYSTSLKSRLTISRDNSKNTLYLQLNSLRAEDTAVYYCAREGSTAVVGDWFDYWGQGTLVTVSS VL: DIQLTQSPSSLSASVGDRVTITCRASQGISRYLAWYQQKPGKAPKLLIYDASNRATGIPSRFSGSGSGTDFTLTISSLQPEDFATYYCQQGYSLWTFGQGTKVEIKR ? 555000
